# System: 786-0 renal
# METHOD_DESCRIPTION: NCI tumour cell line growth inhibition, 48 h
EXPERIMENTAL_ENDPOINT: log10 TGI (log10 of the value in µM)
Recall that a logarithmic scale is used here: each number is log10 of TGI in µM.

Take a look at these entries with their results.
CC(=O)c1sc2c(c1OC(=O)c1ccccc1)c(=O)n(-c1ccccc1)c(=S)n2-c1ccccc1 ... 1.25
CC1OC(OC2C(O)C(OCCc3ccc(O)c(O)c3)OC(CO)C2OC(=O)/C=C/c2ccc(O)c(O)c2)C(O)C(O)C1O (configuration not stated) ... 1.56

Give its log10 TGI value. Item: `O=C1/C=C/[C@@H](O)[C@@H]2C[C@@H](O)C[C@H]2/C=C/CCC[C@H](CCc2ccc(NC(=S)Nc3ccc4c(c3)C(=O)OC43c4ccc(O)cc4Oc4cc(O)ccc43)cc2)O1` -0.11

Which value of log10 TGI has been reported for COc1ccccc1/C=C1\CCC(CN2CCOCC2)C1=O (configuration not stated) in the records? 0.93

log10 TGI for `Oc1ccccc1/C=N\Nc1ccccc1` ? 1.22

Could you share which log10 TGI value was measured for `O=C(Nc1cccc(-n2ccc3c(NC(=O)c4ccccc4)nccc32)c1)c1ccc(Cl)c(Cl)c1` ? 0.20

Given the compound `COc1ccc2nc3c([N+](=O)[O-])ccc4c3c(c2c1)N=CN4CCN(C)C` , what is its reported log10 TGI? 1.33

Need log10 TGI of `C#Cc1cccc(Nc2ncnc3ccc(-c4cnc(N)nc4)cc23)c1` , thanks. 1.17

Data request, read-out log10 TGI, for `Cc1cc(C(=O)CC(Cl)=C(Cl)Cl)c(Cl)cc1Cl` 1.62

Entry under review: `COc1cc2c(c(OC)c1)C(=O)C(=O)C(CC1(C)OCCCO1)=C2` . Reported log10 TGI? 1.34
